Ref: patent US9320278B2

- System: Anthonomus grandis (Cotton Boll Weevil)
- ASSAY_OVERVIEW: Anthonomus grandis (Cotton Boll Weevil) test on treated cotton plants, mortality
- Format: in vivo
- CONDITION: application rate 3 ppm; treated cotton plants, 10 adult weevils per plant; mortality 5 days after infestation
READOUT_NAME: Control/%

>>> reading("Cc1cc(C2=NOC(c3cc(Cl)c(Cl)c(Cl)c3)(C(F)(F)F)C2)ccc1C(=O)NC1CON(CC(F)(F)F)C1=O (mixture of isomers)")
"100%"
>>> reading("CCN1OCC(NC(=O)c2ccc(C3=NOC(c4cc(Cl)c(F)c(Cl)c4)(C(F)(F)F)C3)cc2C)C1=O (mixture of isomers)")
"95%"
>>> reading("CCN1OCC(NC(=O)c2ccc(C3=NOC(c4cc(Cl)cc(Cl)c4)(C(F)(F)F)C3)cc2C)C1=O (mixture of isomers)")
"75%"
>>> reading("CCN1OC[C@@H](NC(=O)c2ccc(C3=NO[C@@](c4cc(Cl)cc(Cl)c4)(C(F)(F)F)C3)cc2C)C1=O")
"100%"
>>> reading("CCN1OC[C@@H](NC(=O)c2ccc(C3=NO[C@@](c4cc(Cl)cc(C(F)(F)F)c4)(C(F)(F)F)C3)c3ccccc23)C1=O")
"30%"
>>> reading("Cc1cc(C2=NOC(c3cc(Cl)cc(Cl)c3)(C(F)(F)F)C2)ccc1C(=O)NC1CON(C)C1=O (mixture of isomers)")
"100%"

* * *

- Test system: Anthonomus grandis (Cotton Boll Weevil)
- ASSAY_OVERVIEW: Anthonomus grandis (Cotton Boll Weevil) test on treated cotton plants, mortality
- Format: in vivo
- CONDITION: application rate 50 ppm; treated cotton plants, 10 adult weevils per plant; mortality 5 days after infestation
READOUT_NAME: Control/%

>>> reading("CCN1OCC(NC(=O)c2ccc(C3=NOC(c4cc(Cl)cc(Cl)c4)(C(F)(F)F)C3)cc2C)C1=O (mixture of isomers)")
"100%"
>>> reading("CCN1OCC(NC(=O)c2ccc(C3=NOC(c4cc(Cl)c(F)c(Cl)c4)(C(F)(F)F)C3)cc2C)C1=O (mixture of isomers)")
"100%"
>>> reading("Cc1cc(C2=NO[C@@](c3cc(Cl)cc(Cl)c3)(C(F)(F)F)C2)ccc1C(=O)N[C@H]1CON(CC(F)(F)F)C1=O")
"100%"

* * *

The reader will find reported Control/% values listed item by item below.
- Test system: Anthonomus grandis (Cotton Boll Weevil)
- ASSAY_OVERVIEW: Anthonomus grandis (Cotton Boll Weevil) test on treated cotton plants, mortality
- Assay type: in vivo
- CONDITION: application rate 3 ppm; treated cotton plants, 10 adult weevils per plant; mortality 5 days after infestation
READOUT_NAME: Control/% (%)

>>> reading("CCN1OC[C@@H](NC(=O)c2ccc(C3=NO[C@@](c4cc(Cl)c(F)c(Cl)c4)(C(F)(F)F)C3)cc2C)C1=O")
100
>>> reading("Cc1cc(C2=NO[C@@](c3cc(Cl)cc(Cl)c3)(C(F)(F)F)C2)ccc1C(=O)N[C@H]1CON(CC(F)(F)F)C1=O")
100
>>> reading("Cc1cc(C2=NOC(c3cc(Cl)cc(Cl)c3)(C(F)(F)F)C2)ccc1C(=O)NC1CON(CC(F)F)C1=O (mixture of isomers)")
100
>>> reading("Cc1cc(C2=NO[C@@](c3cc(Cl)cc(Cl)c3)(C(F)(F)F)C2)ccc1C(=O)N[C@@H]1CON(CC(F)(F)F)C1=O")
100
>>> reading("Cc1cc(C2=NOC(c3cc(Cl)cc(Cl)c3)(C(F)(F)F)C2)ccc1C(=O)NC1CON(CC(F)(F)F)C1=O (mixture of isomers)")
100
>>> reading("CCN1OC[C@@H](NC(=O)c2ccc(C3=NO[C@@](c4cc(Cl)c(F)c(Cl)c4)(C(F)(F)F)C3)cc2Cl)C1=O")
85
